Entries annotated with measured activity, negative = inhibition
Test: qHTS profiling for inhibitors of Plasmodium falciparum proliferation (AID 504749); also: nearly all actives have a fitted effect of over 60% in size;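 as to activity, negative = inhibition: 0% = DMSO vehicle and full inhibition = artemisinin control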
Conditions: P. falciparum in erythrocytes, SYBR Green DNA, 72 h; at 28.7 µM (top of the series); parasite line B
Results filed as inconclusive are left out.
reported metric: activity, negative = inhibition (%)

- compound: "COP(=O)(OC)C(O)C(Cl)(Cl)Cl (configuration not stated)"
  endpoint value: 2.48
- compound: "c1cc2c(c(N3CCNCC3)c1)OCCO2"
  endpoint value: 11.7
- compound: "NCc1cccnc1"
  endpoint value: -2.31
- compound: "C[N+]1(CCC(C(N)=O)(c2ccccc2)c2ccccc2)CCCCC1"
  endpoint value: -9.8
- compound: "ClC1=C(Cl)C2(Cl)C(CBr)CC1(Cl)C2(Cl)Cl (configuration not stated)"
  endpoint value: -10.5
- compound: "O=C1NCN(c2ccccc2)C12CCN(CCCOc1ccc(F)cc1)CC2"
  endpoint value: -11.5
- compound: "CCC1(c2ccccc2)CCC(=O)NC1=O (configuration not stated)"
  endpoint value: 13.3

====

System: CP192
Test: qHTS profiling for inhibitors of Plasmodium falciparum proliferation (AID 504749); also: nearly all actives have a fitted effect of over 60% in size
Conditions: P. falciparum in erythrocytes, SYBR Green DNA, 72 h; series mostly up to 28.7 µM
Protocol: NIH National Institute of Allergy and Infectious Diseases [NIAID] NIH Chemical Genomics Center [NCGC] […] Because mature erythrocytes lack DNA, only Plasmodium-derived DNA is detected. NCGC Assay Protocol Summary: The SYBR Green viability assay was adapted from a method described previously (Plouffe et al., 2008). […] The following morning, fluorescence intensity at 485(14) nm excitation and 535(25) nm emission wavelengths was measured on an EnVision (Perkin Elmer) plate reader. […]
Results filed as inconclusive are left out. The source made the active and inactive calls. Calls come from the whole dose curve; as a rule, active = well fitted inhibition curve with a large enough effect; inconclusive = small, poorly fitted or top-dose-only effect; inactive = flat fitted curve, though single readings scatter.
Labels: active, inactive

- compound: "NC(=O)OCCCc1ccccc1"
  cat: "inactive"
- compound: "CCC1(CC)C(=O)NC(=O)NC1=O"
  cat: "inactive"
- compound: "COCC(=O)N(c1c(C)cccc1C)C(C)C(=O)OC (configuration not stated)"
  cat: "inactive"
- compound: "COP(=S)(OC)Oc1ccc(Sc2ccc(OP(=S)(OC)OC)cc2)cc1"
  cat: "inactive"
- compound: "C[C@]12CC[C@H]3[C@@H](CC=C4C[C@@H](O)CC[C@@]43C)[C@@H]1CC[C@@H]2O"
  cat: "inactive"
- compound: "CN(C)C(=S)SSC(=S)N(C)C"
  cat: "active"
- compound: "Cc1ncc2n1-c1ccc(Cl)cc1C(c1ccccc1F)=NC2"
  cat: "inactive"

====

Settings: Ebola virus entry assay, blue channel fluorescence
Active and inactive are the calls of the source. How the calls were made is not given here.
Labels: 1 (active), 0 (inactive)

- compound: "CCc1nnc(NS(=O)(=O)c2ccc(N)cc2)s1"
  cat: 0
- compound: "CC(=O)Nc1ccc(S(=O)(=O)Nc2ccc([N+](=O)[O-])cc2)cc1"
  cat: 0
- compound: "CCC(=O)O[C@]1(C(=O)CCl)[C@@H](C)C[C@H]2[C@@H]3CCC4=CC(=O)C=C[C@]4(C)[C@@]3(F)[C@@H](O)C[C@@]21C"
  cat: 1
- compound: "COc1ccc2[nH]c(S(=O)Cc3ncc(C)c(OC)c3C)nc2n1 (configuration not stated)"
  cat: 0
- compound: "CN(C)C(=O)CNC(=O)Cc1ccccc1"
  cat: 0
- compound: "C[C@H]1COc2c(C3(N)CC3)c(F)cc3c(=O)c(C(=O)O)cn1c23"
  cat: 0
- compound: "COc1cc(OC)cc(OC)c1"
  cat: 0
- compound: "O=C(NN1CCCC1)NS(=O)(=O)c1ccc(Cl)cc1"
  cat: 0
- compound: "CN1CCN(C2=Nc3ccccc3Sc3ccc(Cl)cc32)CC1"
  cat: 1
- compound: "COc1ccccc1N1CCN(CC(O)COc2cccc3ccccc23)CC1 (configuration not stated)"
  cat: 1
- compound: "CC(=O)OC[C@H]1O[C@@](COC(C)=O)(O[C@H]2O[C@H](COC(C)=O)[C@@H](OC(C)=O)[C@H](OC(C)=O)[C@H]2OC(C)=O)[C@@H](OC(C)=O)[C@@H]1OC(C)=O"
  cat: 0
- compound: "Fc1ccc(C(c2ccc(F)cc2)N2CCNCC2)cc1"
  cat: 1
- compound: "CCN(CC)CC(=O)Nc1c(C)cccc1C(=O)OC"
  cat: 0
- compound: "C#C[C@]1(O)CC[C@H]2[C@@H]3CCC4=CC(=O)CCC4=C3C=C[C@@]21CC"
  cat: 1
- compound: "OC[C@@H](O)[C@@H](O)[C@H](O)[C@H](O)CO"
  cat: 0
- compound: "CC(C)(C)c1nnc(NS(=O)(=O)c2ccc(N)cc2)s1"
  cat: 0
- compound: "CN1[C@@H]2CC[C@H]1CC(NC(=O)n1c(=O)[nH]c3ccccc31)C2 (some centres not stated)"
  cat: 0
- compound: "Cc1ccc(CCn2c3c(c4cc(Cl)ccc42)CN(C)CC3)cn1"
  cat: 1
- compound: "CN(C)CCCSc1ccccc1NC(=O)/C=C/c1ccccc1"
  cat: 1
- compound: "O=C(O)c1ccccc1Nc1cc(Cl)ccc1C(=O)O"
  cat: 0
- compound: "CCCCCCCCCCCCCCCC[N+](C)(C)Cc1ccccc1"
  cat: 1
- compound: "CN1CCC(=C2c3ccccc3CCc3cccnc32)CC1"
  cat: 1

====

Conditions: Ebola virus entry assay, blue channel fluorescence
Activity calls are given as the source filed them. No rule for the calls is given here.
Labels: yes (1) for active, no (0) for inactive

- compound: "CN(CCCN1c2ccccc2CCc2ccccc21)CC(=O)c1ccc(Cl)cc1"
  cat: "yes (1)"
- compound: "CC(=O)OC1(c2ccccc2)CCN(CCc2ccccc2)CC1"
  cat: "yes (1)"
- compound: "CCN(CC)C(C)C(=O)c1ccccc1 (stereo not given)"
  cat: "no (0)"
- compound: "C=CCNc1nc(NCC=C)nc(N2CCN(C(c3ccc(F)cc3)c3ccc(F)cc3)CC2)n1"
  cat: "no (0)"
- compound: "Cc1c(N)c(=O)n(-c2ccccc2)n1C"
  cat: "no (0)"
- compound: "CCCCCCCC/C=C\\CCCCCCCCN"
  cat: "no (0)"
- compound: "OC1C(O)C(O)C(O)C(O)C1O (stereo not given)"
  cat: "no (0)"
- compound: "CC(Cc1ccccc1)NCCCCl (stereo not given)"
  cat: "yes (1)"
- compound: "CN1CCN(c2cc3c(nn2)Oc2ccccc2N3C)CC1"
  cat: "no (0)"
- compound: "Cc1nc2ccccc2n1Cc1ccc(Cl)cc1"
  cat: "no (0)"
- compound: "O=c1oc2c(O)c(O)cc3c(=O)oc4c(O)c(O)cc1c4c23"
  cat: "yes (1)"
- compound: "Cc1ncc(COP(=O)(O)O)c(C=O)c1O"
  cat: "no (0)"
- compound: "CC(C)NCC(O)c1ccc(N)c(C#N)c1 (stereo not given)"
  cat: "no (0)"
- compound: "OC(CCCN1CCCCC1)(c1ccccc1)c1ccccc1"
  cat: "yes (1)"
- compound: "CC(C)NCCCC1(C(N)=O)c2ccccc2-c2ccccc21"
  cat: "no (0)"
- compound: "O=c1[nH]c2ccccc2c(=O)n1CCCl"
  cat: "no (0)"
- compound: "COCc1c(C(C)C)nc(C(C)C)c(/C=C/[C@@H](O)C[C@@H](O)CC(=O)O)c1-c1ccc(F)cc1"
  cat: "no (0)"
- compound: "CCCCCCCCC(=O)NCc1ccc(O)c(OC)c1"
  cat: "no (0)"
- compound: "CCN(CC)CCOc1ccc(/C(=C(\\Cl)c2ccccc2)c2ccccc2)cc1"
  cat: "yes (1)"
- compound: "CCOC(=O)C(c1c(O)c2ccccc2oc1=O)c1c(O)c2ccccc2oc1=O"
  cat: "no (0)"
- compound: "COc1ccc2c(c1OC)C(=O)O[C@@H]2[C@H]1c2c(cc3c(c2OC)OCO3)CCN1C"
  cat: "no (0)"
- compound: "CC[N+](CC)(CC(=O)Nc1c(C)cccc1C)Cc1ccccc1"
  cat: "no (0)"
- compound: "CN(C)CCCN1c2ccccc2Sc2ccc(C(F)(F)F)cc21"
  cat: "yes (1)"
- compound: "O=C(Nc1ccc(Cl)cc1)Nc1ccc(Cl)c(C(F)(F)F)c1"
  cat: "yes (1)"
- compound: "Oc1c(Cl)cc(Cl)c(Cl)c1Cc1c(O)c(Cl)cc(Cl)c1Cl"
  cat: "yes (1)"

====

Tested on: KB-3-1
Experiment: Cytotoxic Profiling of Annotated Libraries Using Quantitative High-Throughput Screening (AID 1296008); also: % is scaled to controls: 0 for no effect and ±100 for the full control effect; nearly all actives have a fitted effect of over 60% in size
Details: Five cell lines viability, CellTiter-Glo ATP luminescence, 48-72 h; hits give low values
Records with an inconclusive call do not appear.
Entries annotated with measured max response
reported metric: max response (%)

- compound: "CC(Cc1ccccc1)NCc1ccccc1Cl (stereo not given)"
  reported metric: "max response"
  unit annotation: "%"
  endpoint value: -8.17
- compound: "COc1cc(C[C@@H](C)N)c(OC)cc1C"
  reported metric: "max response"
  unit annotation: "%"
  endpoint value: -10.2
- compound: "NC1(c2ccccc2)CCCCC1"
  reported metric: "max response"
  unit annotation: "%"
  endpoint value: 1.89
- compound: "O=C(N[C@@H]1N=C(c2ccccc2F)c2cccc3c2N(CC3)C1=O)c1cc2ccccc2[nH]1"
  reported metric: "max response"
  unit annotation: "%"
  endpoint value: -13.9
- compound: "O=C(CCCN1CCC(n2c(=O)[nH]c3ccccc32)CC1)c1ccc(F)cc1"
  reported metric: "max response"
  unit annotation: "%"
  endpoint value: -5.74
- compound: "CC[C@H]1C[C@@H]2C[C@H]3c4[nH]c5ccc(OC)cc5c4CCN(C2)[C@@H]13"
  reported metric: "max response"
  unit annotation: "%"
  endpoint value: -8.79
- compound: "CCN(CC)C(C)C(=O)c1ccccc1 (stereo not given)"
  reported metric: "max response"
  unit annotation: "%"
  endpoint value: -1.49
- compound: "COc1ccc2c3c1O[C@H]1[C@@H](O)C=C[C@H]4[C@@H](C2)N(C)CC[C@@]341"
  reported metric: "max response"
  unit annotation: "%"
  endpoint value: -15
- compound: "CC(=O)OC1(c2ccccc2)CCN(CCc2ccccc2)CC1"
  reported metric: "max response"
  unit annotation: "%"
  endpoint value: -24
- compound: "CN1C(=O)[C@@H](NC(=O)c2cc3ccccc3[nH]2)N=C(c2ccccc2)c2ccccc21"
  reported metric: "max response"
  unit annotation: "%"
  endpoint value: 1.71
- compound: "Oc1ccc2[nH]cc(CCCCN3CC=C(c4ccccc4)CC3)c2c1"
  reported metric: "max response"
  unit annotation: "%"
  endpoint value: 7.3
- compound: "CCOP(=S)(OCC)O/N=C(\\C#N)c1ccccc1"
  reported metric: "max response"
  unit annotation: "%"
  endpoint value: -0.0569
- compound: "CC(CC(C#N)(c1ccccc1)c1ccccc1)N(C)C (stereo not given)"
  reported metric: "max response"
  unit annotation: "%"
  endpoint value: -8.06
- compound: "C[N+]1(CCC(C(N)=O)(c2ccccc2)c2ccccc2)CCCCC1"
  reported metric: "max response"
  unit annotation: "%"
  endpoint value: 6.68
- compound: "Oc1c(Br)cc(Br)cc1Br"
  reported metric: "max response"
  unit annotation: "%"
  endpoint value: -5.6
- compound: "CCCOC(=O)Cc1ccc(OCC(=O)N(CC)CC)c(OC)c1"
  reported metric: "max response"
  unit annotation: "%"
  endpoint value: -8.87
- compound: "CC(C)NCC(O)c1ccc(N)c(C#N)c1 (stereo not given)"
  reported metric: "max response"
  unit annotation: "%"
  endpoint value: -10.3
- compound: "Cc1ccc(N=CN(C)C=Nc2ccc(C)cc2C)c(C)c1"
  reported metric: "max response"
  unit annotation: "%"
  endpoint value: 1.07
- compound: "NC(=O)CN1CCCC1=O"
  reported metric: "max response"
  unit annotation: "%"
  endpoint value: 4.93
- compound: "CNC(C)Cc1ccc2c(c1)OCO2 (stereo not given)"
  reported metric: "max response"
  unit annotation: "%"
  endpoint value: -21.8
- compound: "CCOC(=O)NC(O)C(Cl)(Cl)Cl (stereo not given)"
  reported metric: "max response"
  unit annotation: "%"
  endpoint value: 11.7
- compound: "C[C@H](CN1CCOCC1)C(C(=O)N1CCCC1)(c1ccccc1)c1ccccc1"
  reported metric: "max response"
  unit annotation: "%"
  endpoint value: 1.9
- compound: "C=CCN1CC[C@]23CCCC[C@H]2[C@H]1Cc1ccc(O)cc13"
  reported metric: "max response"
  unit annotation: "%"
  endpoint value: 20.9
- compound: "CCC1(c2cccc(O)c2)CCCCN(C)C1 (stereo not given)"
  reported metric: "max response"
  unit annotation: "%"
  endpoint value: 24.1
- compound: "C=CCOC(Cn1ccnc1)c1ccc(Cl)cc1Cl (stereo not given)"
  reported metric: "max response"
  unit annotation: "%"
  endpoint value: 2.22
